Source listed as PubChem BioAssay (NCI).

Test system: HCT-15 colon
Test: NCI tumour cell line growth inhibition, 48 h
TGI: recorded values

For orientation, consider the following solved cases.
compound	tgt	TGI
O=S(O)CCCCSSCCCCSSCCCCS(=O)O	HCT-15 colon	> 100 µM
O=[N+]([O-])C(C(Cl)=C(Cl)Cl)=C(N1CCOCC1)N1CCOCC1	HCT-15 colon	> 100 µM
O=C(/C=C/c1ccccc1Cl)c1ccccc1Cl	HCT-15 colon	28 µM
Cc1cccc2c(N)c3cccc(C(=O)NCCCNCCN)c3nc12	HCT-15 colon	> 100 µM
O=C(O)c1cc(N=Nc2ccc([As](=O)(O)O)cc2)ccc1O	HCT-15 colon	> 100 µM
Cc1cccc(N2C(=O)C(Cl)=C(Cl)C2=O)c1	HCT-15 colon	> 58.4 µM
N#Cc1cnsc1	HCT-15 colon	> 100 µM
C=CCN1C(=O)/C(=C/c2ccccc2)NC1=S	HCT-15 colon	> 100 µM

Report TGI for Cc1c(Cc2ccccc2)n(COCCCO)c(=O)[nH]c1=O tested on HCT-15 colon.
> 100 µM

Report TGI for CC(=O)NC(CCCN)C(=O)NCc1ccccc1 (centres undefined) tested on HCT-15 colon.
> 100 µM

Report TGI for CC(=O)c1ccc(NC(=O)/C(Cc2ccccn2)=N/NC(=O)C[N+](C)(C)C)cc1 tested on HCT-15 colon.
> 100 µM

Report TGI for C=C1C(=O)O[C@H]2[C@H]1CC/C(COC(=O)/C=C\C(=O)NCc1ccc(Cn3c(=O)sn(-c4ccc(C#N)cc4)c3=O)cc1)=C\CC[C@@]1(C)O[C@@H]21 tested on HCT-15 colon.
1.95 µM

Report TGI for CC(C)(C)OC(=O)N(CCCN(CCn1c2c(c3ccccc3c1=O)C(=O)c1ccccc1-2)C(=O)OC(C)(C)C)CCn1c2c(c3ccccc3c1=O)C(=O)c1ccccc1-2 tested on HCT-15 colon.
> 50 µM

Report TGI for CCCCCCCCCCC(O)C1CCC(C2CCC(C(O)CCCCC(O)CCCCCC(O)CC3=CC(C)OC3=O)O2)O1 (centres undefined) tested on HCT-15 colon.
> 25 µM
